- method.notes: stability (content) of ingredients included in the Salvia miltiorrhiza extract on storage
- Format: physicochemical
- measurement.context: extract made with 50% EtOH, before storage
measurement.kind: Content (mg/g) of ingredient in Salvia miltiorrhiza extract
Answer in mg/g, number only, no unit symbol.

Field: example entries. Status: answers known.
Identify the reported Content (mg/g) of ingredient in Salvia miltiorrhiza extract for the following entry. O=C(O)[C@H](O)Cc1ccc(O)c(O)c1
1.28

Quote Content (mg/g) of ingredient in Salvia miltiorrhiza extract reported for Cc1coc2c1C(=O)C(=O)c1c-2ccc2c1CCCC2(C)C please.
5.21

Provide Content (mg/g) of ingredient in Salvia miltiorrhiza extract value for the following compound: O=C(/C=C/c1ccc(O)c2c1[C@H](C(=O)O[C@H](Cc1ccc(O)c(O)c1)C(=O)O)[C@@H](c1ccc(O)c(O)c1)O2)O[C@H](Cc1ccc(O)c(O)c1)C(=O)O
38.23

Proceed to the following item.
Supply measured Content (mg/g) of ingredient in Salvia miltiorrhiza extract of Cc1coc2c1C(=O)c1ccc3c(C)cccc3c1C2=O in your reply.
12.31

====

- method.notes: stability (content) of ingredients included in the Salvia miltiorrhiza extract on storage
- Format: physicochemical
- measurement.context: extract made with 70% EtOH, before storage
Reported Content (mg/g) of ingredient in Salvia miltiorrhiza extract values are given for each entry in this list.
Expressed in mg/g, but write only the number.

Answered examples (3):
Please give the documented Content (mg/g) of ingredient in Salvia miltiorrhiza extract of O=C(/C=C/c1ccc(O)c2c1[C@H](C(=O)O[C@H](Cc1ccc(O)c(O)c1)C(=O)O)[C@@H](c1ccc(O)c(O)c1)O2)O[C@H](Cc1ccc(O)c(O)c1)C(=O)O
33.1

Look up Content (mg/g) of ingredient in Salvia miltiorrhiza extract of Cc1coc2c1C(=O)c1ccc3c(C)cccc3c1C2=O and report it.
14.23

Return Content (mg/g) of ingredient in Salvia miltiorrhiza extract (reported value) for this compound: Cc1coc2c1C(=O)C(=O)c1c-2ccc2c1CCCC2(C)C
7.22

--- query ---
Report Content (mg/g) of ingredient in Salvia miltiorrhiza extract, nothing else, for this compound: O=C(O)[C@H](O)Cc1ccc(O)c(O)c1
25.17

====

- method.notes: stability (content) of ingredients included in the Salvia miltiorrhiza extract on storage
- Format: physicochemical
- measurement.context: extract made with 0% EtOH, 5 days at room temperature
Attribute: Content (mg/g) of ingredient after 5 days of storage at room temperature of extract
Expressed in mg/g, but write only the number.

Examples from the recorded data:
Report Content (mg/g) of ingredient after 5 days of storage at room temperature of extract, nothing else, for this compound: Cc1coc2c1C(=O)C(=O)c1c-2ccc2c1CCCC2(C)C [Tanshinone IIA]
0.65

Let me know recorded Content (mg/g) of ingredient after 5 days of storage at room temperature of extract for Cc1coc2c1C(=O)c1ccc3c(C)cccc3c1C2=O [Isotanshinone] , thanks.
0.99

Assign Content (mg/g) of ingredient after 5 days of storage at room temperature of extract to the following record: O=C(O)[C@H](O)Cc1ccc(O)c(O)c1 [Danshensu]
0.32

Attention now turns to another entry.
Query Content (mg/g) of ingredient after 5 days of storage at room temperature of extract for O=C(/C=C/c1ccc(O)c2c1[C@H](C(=O)O[C@H](Cc1ccc(O)c(O)c1)C(=O)O)[C@@H](c1ccc(O)c(O)c1)O2)O[C@H](Cc1ccc(O)c(O)c1)C(=O)O [Salvianolic acid B]
18.33
